- ASSAY SUMMARY: TIMS collisional cross section (CCS, N2) of the lipid ion; higher = larger ion cross section
- MEASUREMENT PARAMETERS: sample type: HeLa; ionization mode: positive; one isomer drawn
# TIMS collisional cross section listing for each entry below
The answer is to be given in Å²; state only the numeric part.

MOLECULE	PARAMETER	OBS VALUE
CCCC/C=C\CCCCCCCC(=O)OC[C@H](COC(=O)CCCCCCC/C=C\C/C=C\CCCCC)OC(=O)CCCCCCC/C=C\CCCCCC [TG 14:1_16:1_18:2] (ion (formula + adduct): [C51H90O6+NH4] 1+)	TIMS collisional cross section	306.1
CCCCC/C=C\C/C=C\CCCCCCCC(=O)O[C@H](COC(=O)CCCCCCC/C=C\CCCCCCCC)COP(=O)(O)OCCN [PE 18:1_18:2@] (ion (formula + adduct): [C41H76NO8P+H] 1+)	TIMS collisional cross section	277.9
CCCCCC/C=C/CCCCCCCCCC(=O)OC[C@@H](COC(=O)CCCCCCCCCCCCCCC)OC(=O)CCCCCCCCCCCCCCC [TG 16:0_16:0_18:1] (ion (formula + adduct): [C53H100O6+NH4] 1+)	TIMS collisional cross section	318.75
CCCCCC/C=C\CCCCCCCC(=O)O[C@H](COC(=O)CCCCCCCCCCCCCCC)COP(=O)([O-])OCC[N+](C)(C)C [PC 16:0_16:1@] (ion (formula + adduct): [C40H78NO8P+H] 1+)	TIMS collisional cross section	282

Query: Find the recorded TIMS collisional cross section belonging to CCCCCCCCCCCCCCCCCC(=O)O[C@H](CO)COP(=O)(O)OCCN [LPE 18:0] (ion (formula + adduct): [C23H48NO7P+H] 1+) and report it.
Response: 221.7

Query: Return reported TIMS collisional cross section; argument: CCCCC/C=C\C/C=C\C/C=C\CCCCCCC(=O)OC[C@H](COP(=O)(O)OCCN)OC(=O)CCCCCCCCCCCCCCC [PE 20:3@_16:0] (ion (formula + adduct): [C41H76NO8P+H] 1+)
Response: 279.1

Query: Recorded TIMS collisional cross section of CCCCCCCCCCCCCCCC(=O)OC[C@@H](COC(=O)CCCCCCCCCCCCC)OC(=O)CCCCCCCCCCCCC [TG 14:0_14:0_16:0] (ion (formula + adduct): [C47H90O6+NH4] 1+) , please.
Response: 301.7

Query: Recorded TIMS collisional cross section for CC/C=C\C/C=C\C/C=C\C/C=C\C/C=C\C/C=C\CCC(=O)O[C@H](COC(=O)CCCCCCC/C=C\CCCCCC)COP(=O)([O-])OCC[N+](C)(C)C [PC 16:1_22:6@] (ion (formula + adduct): [C46H78NO8P+H] 1+) , please?
Response: 288.4

Every entry's value here was drawn from the supplement of paper PMC6965134.
